target under test: T1, PDZD7_3, Q9H5P4
T1 sequence (Q9H5P4 857-944, limits assumed, looked up): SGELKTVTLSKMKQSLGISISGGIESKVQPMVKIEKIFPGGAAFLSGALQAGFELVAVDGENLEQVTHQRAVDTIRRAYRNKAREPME
method: holdup assay
Design: key: below the threshold = too weak to quantify, mostly under pKd 3.1 to 4
condition info: plain residues with an end cap or a label only (N-terminal biotin on a linker: ado-ado)
endpoint: pKd

binder: AKADAQESRL [PLCB2, Q00722]
endpoint: pKd
result: 4.29

binder: LLQEEWETVM [PTH1R, Q03431]
endpoint: pKd
result: 4.45

binder: VKQYADVEGF [HNRNPK, P61978;P61978-2]
endpoint: pKd
result: below the threshold

binder: LPPPESESKV [KCNJ9, Q92806]
endpoint: pKd
result: below the threshold

binder: HDDYFYHDEL [RCN2, Q14257]
endpoint: pKd
result: below the threshold

Then this binder:
Entry PGKKPEDSRV [SLCO2B1, O94956] ; pKd = below the threshold
